This collection of values is drawn from patent US9365576B2.

Please provide measured pIC50 for the entries that follow.
- target: human MDM2 protein (amino acids 2-188) (Homo sapiens (Human), UniProt Q00987)
- Sequence (Q00987 2-188): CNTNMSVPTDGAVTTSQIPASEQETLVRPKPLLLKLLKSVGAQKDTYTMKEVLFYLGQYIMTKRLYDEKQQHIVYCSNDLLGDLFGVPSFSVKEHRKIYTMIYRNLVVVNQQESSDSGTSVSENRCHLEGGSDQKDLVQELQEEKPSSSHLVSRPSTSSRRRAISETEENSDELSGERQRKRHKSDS
- test_summary: TR-FRET assay, p53-MDM2 Assay 2 (modified)
- Type: binding
- conditions_used: TR-FRET; 0.1 nM MDM2, 0.1 nM Europium labeled streptavidin, Tecan genios Pro reader; read-out: IC50 p53-MDM2 Assay 2
// pIC50 here means minus log10 of the molar concentration (mol/L)

Can you share its pIC50? I mean this compound: COc1ncc(-c2cc3c(n2C(C)C)C(c2ccc(Cl)c(F)c2)N(c2cc(Cl)cn(C)c2=O)C3=O)c(OC)n1 (stereo not shown) [Example 196]
9.40

Recorded pIC50 of COc1ncncc1-c1cc2c(n1C(C)C)C(c1ccc(C#N)cc1)N(c1cc(Cl)c(=O)n(C)c1)C2=O (stereo not shown) [Example 236] , please.
8.53

Recorded pIC50 for COc1ccccc1-c1cc2c(n1C(C)C)C(c1ccc(Cl)cc1)N(c1cc(Cl)c(=O)n(C)c1)C2=O (stereo not shown) [Example 46] , please?
9.69

For the compound shown here, CNC(=O)c1ccc(OC)c(-c2cc3c(n2C(C)C)C(c2ccc(Cl)cc2)N(c2cc(Cl)c(=O)n(C)c2)C3=O)c1 (stereo not shown) [Example 49] , give the reported pIC50.
9.86
